# System: C. difficile isolate 20121190 (ribotype 126)
# Method summary: MIC by broth microdilution
# Type: cell-based, Clostridium difficile
# Test conditions: Clostridioides difficile; isolate 20121190, ribotype 126; duplicate; read-out: MIC
Structures can show the parent of a compound that is named as a salt.
Assay endpoint: MIC (µg/mL)
Report as a plain number; the unit µg/mL is understood.

Molecule	MIC (µg/mL)
Cc1ncc([N+](=O)[O-])n1CCO	0.13
Cc1cc(C(C#N)c2ccc(Cl)cc2)c(Cl)cc1NC(=O)c1cc(I)cc(I)c1O (stereo not drawn)	0.25
O=C(Nc1cc(Cl)cc(Cl)c1O)c1c(O)c(Cl)cc(Cl)c1Cl [Oxyclozanide, oxyclozanide]	1
O=C(Nc1ccc(Oc2ccc(Cl)cc2)cc1)c1cc(Cl)cc(Cl)c1O	0.25
O=C(Nc1ccc([N+](=O)[O-])cc1Cl)c1cc(Cl)ccc1O [Niclosamide, niclosamide]	0.5

# ---- query molecule ----
Test item CN[C@H](CC(C)C)C(=O)N[C@H]1C(=O)N[C@@H](CC(N)=O)C(=O)N[C@H]2C(=O)N[C@H]3C(=O)N[C@H](C(=O)N[C@H](C(=O)O)c4cc(O)cc(O)c4-c4cc3ccc4O)[C@H](O)c3ccc(c(Cl)c3)Oc3cc2cc(c3O[C@@H]2O[C@H](CO)[C@@H](O)[C@H](O)[C@H]2O[C@H]2C[C@](C)(N)[C@H](O)[C@H](C)O2)Oc2ccc(cc2Cl)[C@H]1O [Vancomycin, vancomycin hydrochloride hydrate] ; C. difficile isolate 20121190 (ribotype 126); reported MIC was 0.5

* * *

Each item that follows carries a reported MIC.
# Tested on: S. epidermidis 1457
# Method summary: MIC by broth microdilution
# Format: cell-based
# Test conditions: Staphylococcus epidermidis; S. epidermidis 1457; CAMHB, aerobic; duplicate; read-out: MIC
Structures can show the parent of a compound that is named as a salt.

Answered examples (6):
Molecule	MIC
O=C(Nc1ccc(Cl)cc1)c1cc(I)cc(I)c1O	≤ 0.03 µg/mL
Cc1ncc([N+](=O)[O-])n1CCO	> 32 µg/mL
Cc1cc(C(C#N)c2ccc(Cl)cc2)c(Cl)cc1NC(=O)c1cc(I)cc(I)c1O (stereo not shown)	≤ 0.03 µg/mL
CN[C@H](CC(C)C)C(=O)N[C@H]1C(=O)N[C@@H](CC(N)=O)C(=O)N[C@H]2C(=O)N[C@H]3C(=O)N[C@H](C(=O)N[C@H](C(=O)O)c4cc(O)cc(O)c4-c4cc3ccc4O)[C@H](O)c3ccc(c(Cl)c3)Oc3cc2cc(c3O[C@@H]2O[C@H](CO)[C@@H](O)[C@H](O)[C@H]2O[C@H]2C[C@](C)(N)[C@H](O)[C@H](C)O2)Oc2ccc(cc2Cl)[C@H]1O [Vancomycin, vancomycin hydrochloride hydrate]	2 µg/mL
O=C(Nc1ccc(Oc2ccc(Cl)cc2)cc1)c1cc(Cl)cc(Cl)c1O	≤ 0.03 µg/mL
O=C(Nc1ccc2ccccc2c1)c1cc(I)cc(I)c1O	0.06 µg/mL

We next turn to a different molecule, shown below.
get_value(item= "O=C(Nc1ccc(Oc2ccc(Cl)cc2)cc1)c1cc(I)cc(I)c1" , readout=MIC) returns > 32 µg/mL

* * *

# System: B. thetaiotaomicron ATCC 29148
# Method summary: microbe, parasite or virus in culture
# Type: cell-based
# Test conditions: Bacteroides thetaiotaomicron, ATCC29148
Counter-ions that a name gives are not always drawn.
Assay endpoint: MIC

Worked examples follow.
Compound	Experimental target	MIC
Cc1ncc([N+](=O)[O-])n1CCO [Metronidazole, metronidazole]	B. thetaiotaomicron ATCC 29148	1 µg/mL
CN[C@H](CC(C)C)C(=O)N[C@H]1C(=O)N[C@@H](CC(N)=O)C(=O)N[C@H]2C(=O)N[C@H]3C(=O)N[C@H](C(=O)N[C@H](C(=O)O)c4cc(O)cc(O)c4-c4cc3ccc4O)[C@H](O)c3ccc(c(Cl)c3)Oc3cc2cc(c3O[C@@H]2O[C@H](CO)[C@@H](O)[C@H](O)[C@H]2O[C@H]2C[C@](C)(N)[C@H](O)[C@H](C)O2)Oc2ccc(cc2Cl)[C@H]1O [Vancomycin, vancomycin hydrochloride hydrate]	B. thetaiotaomicron ATCC 29148	> 32 µg/mL
O=C(Nc1ccc(Oc2ccc(Cl)cc2)c(Cl)c1)c1cc(I)cc(I)c1O [Rafoxanide, rafoxanide]	B. thetaiotaomicron ATCC 29148	> 32 µg/mL

Please look at the following compound next.
Lab book: MIC of Cc1cc(C(C#N)c2ccc(Cl)cc2)c(Cl)cc1NC(=O)c1cc(I)cc(I)c1O (stereo not shown) [Closantel] noted as > 32 µg/mL

* * *

# Test system: C. difficile isolate 20111163 (ribotype 024)
# Method summary: MIC by broth microdilution
# Assay type: cell-based, Clostridium difficile
# Test conditions: Clostridioides difficile; isolate 20111163, ribotype 024; duplicate; read-out: MIC
Where a name gives a salt, the structure may show the parent alone.
As shown below, each of these compounds has a reported MIC value.
Give the number; µg/mL is assumed, so skip it.

Compound	MIC [µg/mL]
O=C(Nc1cc(Cl)cc(Cl)c1O)c1c(O)c(Cl)cc(Cl)c1Cl [Oxyclozanide, oxyclozanide]	0.5
Cc1ncc([N+](=O)[O-])n1CCO	0.13

Noted for O=C(Nc1ccc([N+](=O)[O-])cc1Cl)c1cc(Cl)ccc1O [Niclosamide, niclosamide] : its MIC reads 1

Reported MIC ( CN[C@H](CC(C)C)C(=O)N[C@H]1C(=O)N[C@@H](CC(N)=O)C(=O)N[C@H]2C(=O)N[C@H]3C(=O)N[C@H](C(=O)N[C@H](C(=O)O)c4cc(O)cc(O)c4-c4cc3ccc4O)[C@H](O)c3ccc(c(Cl)c3)Oc3cc2cc(c3O[C@@H]2O[C@H](CO)[C@@H](O)[C@H](O)[C@H]2O[C@H]2C[C@](C)(N)[C@H](O)[C@H](C)O2)Oc2ccc(cc2Cl)[C@H]1O [Vancomycin, vancomycin hydrochloride hydrate] ) = 1

Summary for this compound, "O=C(Nc1ccc(Oc2ccc(Cl)cc2)cc1)c1cc(Cl)cc(Cl)c1O" : MIC is 0.13

* * *

// reported MIC per item
# System: C. difficile isolate 20110742 (ribotype 002)
# Method summary: MIC by broth microdilution
# Assay type: cell-based, Clostridium difficile
# Test conditions: Clostridioides difficile; isolate 20110742, ribotype 002; duplicate; read-out: MIC
// note: answer is a bare numeric in µg/mL

Example cases with answers are listed next.
Molecule	Experimental target	Unit abbreviation	MIC
O=C(Nc1ccc([N+](=O)[O-])cc1Cl)c1cc(Cl)ccc1O [Niclosamide, niclosamide]	C. difficile isolate 20110742 (ribotype 002)	µg/mL	1
O=C(Nc1ccc(Oc2ccc(Cl)cc2)cc1)c1cc(Cl)cc(Cl)c1O	C. difficile isolate 20110742 (ribotype 002)	µg/mL	0.06
Cc1ncc([N+](=O)[O-])n1CCO	C. difficile isolate 20110742 (ribotype 002)	µg/mL	0.13

For record O=C(Nc1cc(Cl)cc(Cl)c1O)c1c(O)c(Cl)cc(Cl)c1Cl [Oxyclozanide, oxyclozanide] the listed MIC is 1

* * *

MIC values for the molecules below.
# System: P. distasonis ATCC 8503
# Method summary: MIC by broth microdilution
# Assay type: cell-based
# Test conditions: Parabacteroides distasonis, ATCC8503; P. distasonis ATCC 8503; supplemented Brucella broth, anaerobic; duplicate; read-out: MIC

Guide cases for MIC, answers given:
Molecule	MIC
O=C(Nc1ccc(Oc2ccc(Cl)cc2)cc1)c1cc(I)cc(I)c1 [Compound 5i]	> 32 µg/mL
Cc1ncc([N+](=O)[O-])n1CCO [Metronidazole, metronidazole]	2 µg/mL
O=C(Nc1ccc2ccccc2c1)c1cc(I)cc(I)c1O [Compound 6a]	16 µg/mL
O=C(Nc1ccc(Cl)cc1)c1cc(I)cc(I)c1O [Compound 7b]	8 µg/mL

// recorded MIC for Cc1cc(C(C#N)c2ccc(Cl)cc2)c(Cl)cc1NC(=O)c1cc(I)cc(I)c1O (centres unmarked) [Closantel] : 16 µg/mL
